test system: Amaranthus retroflexus; assay: Post-emergence herbicidal activity against Amaranthus retroflexus assessed as growth inhibition at emulsified concentrate of 150 g/ai ha after 15 days by greenhouse test; format: functional
Assign MET to entries whose inhibition (INH) meets or exceeds 60%; assign NOT MET to the rest.

{"smiles": "Cc1nn(-c2cc(NS(C)(=O)=O)c(Cl)cc2Cl)c(=O)n1C(F)F", "group": "MET"}
{"smiles": "CC(C)OC(=O)CSc1nc2cc(-n3nc(C(C)(C)C)oc3=O)c(F)cc2s1", "group": "MET"}
{"smiles": "CCOC(=O)CSc1nc2cc(-n3nc(C(C)(C)C)oc3=O)c(Br)cc2s1", "group": "MET"}
{"smiles": "C=CCSc1nc2cc(-n3nc(C(C)(C)C)oc3=O)c(Cl)cc2s1", "group": "MET"}
{"smiles": "COC(=O)Sc1nc2cc(-n3nc(C(C)(C)C)oc3=O)c(F)cc2s1", "group": "NOT MET"}
{"smiles": "CC(C)(C)OC(=O)CSc1nc2cc(-n3nc(C(C)(C)C)oc3=O)c(F)cc2s1", "group": "NOT MET"}
{"smiles": "CCCOC(=O)CSc1nc2cc(-n3nc(C(C)(C)C)oc3=O)c(F)cc2s1", "group": "MET"}
{"smiles": "CCOC(=O)Sc1nc2cc(-n3nc(C(C)(C)C)oc3=O)c(Cl)cc2s1", "group": "MET"}

The reported measurements were obtained from ChEMBL document CHEMBL3045650.
